From: patent US20140171431A1

Target: Lp-PLA2 in rabbit serum (Oryctolagus cuniculus)
Construct: from tissue; host or cells: rabbit serum
Sequence (G1SE06 22-423): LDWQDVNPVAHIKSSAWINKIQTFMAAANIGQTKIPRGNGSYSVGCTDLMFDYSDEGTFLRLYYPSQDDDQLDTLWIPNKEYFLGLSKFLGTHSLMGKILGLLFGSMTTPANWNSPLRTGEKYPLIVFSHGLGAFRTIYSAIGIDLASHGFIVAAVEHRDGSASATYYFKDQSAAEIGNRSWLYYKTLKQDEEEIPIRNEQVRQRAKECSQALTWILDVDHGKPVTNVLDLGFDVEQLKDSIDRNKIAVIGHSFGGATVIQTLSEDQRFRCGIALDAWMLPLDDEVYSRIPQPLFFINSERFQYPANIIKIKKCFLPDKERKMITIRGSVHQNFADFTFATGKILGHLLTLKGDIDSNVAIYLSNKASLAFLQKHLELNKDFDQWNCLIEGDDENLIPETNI
Test: In vitro inhibitory activity towards the enzyme Lp-PLA2 in rabbit serum, [3H]PAF substrate
Type: biochemical
Conditions: 1 μM; rabbit serum
readout.type: inhibition at 1 µM (%)

Query string: Data request, read-out inhibition at 1 µM, for C[N+](C)(Cc1ccc(F)cc1)Cc1cnc(Cn2c(SCc3ccc(F)cc3)nc(=O)c3c2CCC3)n1Cc1ccc(-c2ccc(C(F)(F)F)cc2)cc1 [Example 47]
Result string: 98.6

A. O=c1nc(SCc2ccc(F)cc2)n(Cc2nc3ccccc3n2Cc2ccc(-c3ccc(C(F)(F)F)cc3)cc2)c2c1CCC2 [Example 53]
B. O=c1nc(SCc2ccc(F)cc2)n(Cc2nccn2Cc2ccc(-c3ccc(Cl)cc3)cc2)c2c1CCC2 [Example 32]
Query string: Return label of the item with the larger inhibition at 1 µM. Candidates: A , B . Could you answer with the label of the item you picked?
Result string: A
